Documented solubility kinetic across a set of compounds
# procedure text: physchem
# details: 0.01 M phosphate buffered saline, pH 7.4

compound: CCCCCn1cc(C(=O)c2cccc3ccccc23)c2ccncc21
solubility kinetic: 3 µM
//
compound: COCCn1cc(C(=O)c2cccc3ccccc23)c2cccnc21
solubility kinetic: 10 µM
//
compound: CCCCCCC(C)(C)c1ccc([C@@H]2C[C@H](O)CC[C@H]2CCCO)c(O)c1 [CP-55940]
solubility kinetic: 30 µM
//
compound: Cc1c(C(=O)c2cccc3ccccc23)c2cccc3c2n1[C@H](CN1CCOCC1)CO3 [WIN-552122]
solubility kinetic: 3 µM
//
compound: COCCn1cc(C(=O)Nc2cccc3ccccc23)c2ccccc21
solubility kinetic: 30 µM

---

pKi: −log10 of the molar value.
Parameter 'readout' = pKi; parameter 'system' = Cannabinoid receptor 2 (Homo sapiens, UniProt P34972).
Sequence (P34972 whole entry): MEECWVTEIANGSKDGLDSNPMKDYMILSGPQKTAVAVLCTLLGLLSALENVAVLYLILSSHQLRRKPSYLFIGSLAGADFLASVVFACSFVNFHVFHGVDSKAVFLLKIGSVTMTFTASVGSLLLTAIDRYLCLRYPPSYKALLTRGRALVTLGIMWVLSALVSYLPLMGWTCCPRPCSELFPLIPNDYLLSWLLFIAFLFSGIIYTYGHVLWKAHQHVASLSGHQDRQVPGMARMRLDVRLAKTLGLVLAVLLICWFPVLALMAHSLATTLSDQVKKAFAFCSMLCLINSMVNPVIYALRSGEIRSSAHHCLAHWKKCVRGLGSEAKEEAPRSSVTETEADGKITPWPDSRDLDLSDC
endpoint: pKi

molecule: COCCn1cc(C(=O)c2ccc(-c3ccccc3)cc2)c2ccccc21
qualifier sign: <
numeric readout: 6.00
--
molecule: CCCCCn1cc(C(=O)c2cccc3ccccc23)c2ccncc21
qualifier sign: =
numeric readout: 6.30
--
molecule: CCCCCCC(C)(C)c1cc(O)c2c(c1)OC(C)(C)C1CCC(=O)CC21 (stereo unspecified) [NABILONE]
qualifier sign: =
numeric readout: 8.20
--
molecule: CCCCCn1cc(C(=O)c2cccc3ccccc23)c2ccccc21
qualifier sign: =
numeric readout: 8.20
--
molecule: COCCn1cc(C(=O)Nc2ccc3ccccc3c2)c2ccccc21
qualifier sign: =
numeric readout: 6.50
--
molecule: CCCCCn1cc(C(=O)Nc2cccc3ccccc23)c2ccccc21
qualifier sign: =
numeric readout: 7.00
--
molecule: CCCCCn1cc(C(=O)c2cccc(-c3ccccc3)c2)c2ccccc21
qualifier sign: =
numeric readout: 7.20
--
molecule: CCCCCn1cc(C(=O)c2ccccc2-c2ccccc2)c2ccccc21
qualifier sign: =
numeric readout: 8.10
--
molecule: COCCn1cc(C(=O)Nc2cccc3ccccc23)c2ccccc21
qualifier sign: =
numeric readout: 6.60
--
molecule: CCCCCn1cc(C(=O)c2cccc3ccccc23)c2cnccc21
qualifier sign: =
numeric readout: 7.30
--
molecule: CCCCCn1cc(C(=O)c2cccc3ccccc23)c2cccnc21
qualifier sign: =
numeric readout: 7.30

---

# experimental target: Cannabinoid receptor 2 (Homo sapiens, UniProt P34972)
# procedure text: Agonist activity at human CB2 receptor expressed in CHO cells assessed as inhibition of forskolin-stimulated cAMP accumulation after 20 mins
Mark each entry met if its EC50 sits below 8 nM, and not met for all others.

molecule: CCCCCn1cc(C(=O)c2cccc3ccccc23)c2ccccc21
experimental target: Cannabinoid receptor 2 (Homo sapiens, UniProt P34972)
assigned category: met
--
molecule: COCCn1cc(C(=O)Nc2cccc3ccccc23)c2ccccc21
experimental target: Cannabinoid receptor 2 (Homo sapiens, UniProt P34972)
assigned category: met
--
molecule: CCCCCn1cc(C(=O)c2cccc3ccccc23)c2cccnc21
experimental target: Cannabinoid receptor 2 (Homo sapiens, UniProt P34972)
assigned category: not met
--
molecule: CCCCCn1cc(C(=O)Nc2ccc3ccccc3c2)c2ccccc21
experimental target: Cannabinoid receptor 2 (Homo sapiens, UniProt P34972)
assigned category: not met
--
molecule: COCCn1cc(C(=O)c2cccc3ccccc23)c2cccnc21
experimental target: Cannabinoid receptor 2 (Homo sapiens, UniProt P34972)
assigned category: not met
--
molecule: CCCCCCC(C)(C)c1cc(O)c2c(c1)OC(C)(C)C1CCC(=O)CC21 (configuration not stated)
experimental target: Cannabinoid receptor 2 (Homo sapiens, UniProt P34972)
assigned category: not met

---

# experimental target: Cannabinoid receptor 1 (Homo sapiens)
# Sequence (P21554 whole entry): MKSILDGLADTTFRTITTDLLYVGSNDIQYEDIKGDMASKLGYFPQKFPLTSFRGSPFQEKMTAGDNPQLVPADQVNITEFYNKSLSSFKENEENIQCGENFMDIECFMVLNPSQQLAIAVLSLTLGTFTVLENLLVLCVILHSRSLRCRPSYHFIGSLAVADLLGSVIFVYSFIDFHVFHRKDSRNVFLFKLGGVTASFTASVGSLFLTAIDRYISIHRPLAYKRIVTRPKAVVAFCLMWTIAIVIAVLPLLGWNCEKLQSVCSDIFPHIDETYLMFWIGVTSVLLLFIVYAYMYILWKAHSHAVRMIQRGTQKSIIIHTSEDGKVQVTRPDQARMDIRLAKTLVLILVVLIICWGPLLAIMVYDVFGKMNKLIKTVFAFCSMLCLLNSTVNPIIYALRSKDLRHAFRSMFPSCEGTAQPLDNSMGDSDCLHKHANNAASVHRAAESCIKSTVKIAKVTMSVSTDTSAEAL
pKi: −log10 of the molar value.
Mark 1 (yes) for reported pKi of 7 or greater; mark 0 (no) for anything smaller.

entry smiles: COCCn1cc(C(=O)c2cccc(-c3ccccc3)c2)c2ccccc21
experimental target: Cannabinoid receptor 1 (Homo sapiens)
assigned category: 0 (no)
--
entry smiles: CCCCCn1cc(C(=O)Nc2cccc3ccccc23)c2ccccc21
experimental target: Cannabinoid receptor 1 (Homo sapiens)
assigned category: 1 (yes)
--
entry smiles: COCCn1cc(C(=O)Nc2ccc3ccccc3c2)c2ccccc21
experimental target: Cannabinoid receptor 1 (Homo sapiens)
assigned category: 0 (no)
--
entry smiles: CCCCCn1cc(C(=O)c2cccc3ccccc23)c2cccnc21
experimental target: Cannabinoid receptor 1 (Homo sapiens)
assigned category: 1 (yes)

---

# procedure text: physchem
# details: 0.01 M phosphate buffered saline, pH 7.4
Documented solubility kinetic across a set of compounds

entry smiles: Cc1c(C(=O)c2cccc3ccccc23)c2cccc3c2n1[C@H](CN1CCOCC1)CO3
solubility kinetic [µM]: 20
//
entry smiles: COCCn1cc(C(=O)Nc2cccc3ccccc23)c2ccccc21
solubility kinetic [µM]: 100
//
entry smiles: CCCCCCC(C)(C)c1ccc([C@@H]2C[C@H](O)CC[C@H]2CCCO)c(O)c1
solubility kinetic [µM]: 100
//
entry smiles: CCCCCn1cc(C(=O)c2cccc3ccccc23)c2ccncc21
solubility kinetic [µM]: 10
//
entry smiles: COCCn1cc(C(=O)c2cccc3ccccc23)c2cccnc21
solubility kinetic [µM]: 65

---

# procedure text: physchem
# details: phosphate buffer, pH 4
# Description: Thermodynamic solubility of the compound in phosphate buffer at pH 4 after 24 hrs by HPLC analysis

molecule: CCCCCCC(C)(C)c1ccc([C@@H]2C[C@H](O)CC[C@H]2CCCO)c(O)c1 [CP-55940]
unit name: µM
qualifier sign: =
solubility thermodynamic at 24 h: 2
--
molecule: CCCCCn1cc(C(=O)c2ccc(-c3ccccc3)cc2)c2ccccc21
unit name: µM
qualifier sign: <
solubility thermodynamic at 24 h: 1
--
molecule: CCCCCCC(C)(C)c1cc(O)c2c(c1)OC(C)(C)C1CCC(=O)CC21 (stereo not given) [NABILONE]
unit name: µM
qualifier sign: <
solubility thermodynamic at 24 h: 1
--
molecule: CCCCCn1cc(C(=O)c2cccc3ccccc23)c2ccccc21
unit name: µM
qualifier sign: <
solubility thermodynamic at 24 h: 1
--
molecule: COCCn1cc(C(=O)c2cccc3ccccc23)c2cccnc21
unit name: µM
qualifier sign: =
solubility thermodynamic at 24 h: 3
--
molecule: CCCCCn1cc(C(=O)c2cccc3ccccc23)c2cccnc21
unit name: µM
qualifier sign: =
solubility thermodynamic at 24 h: 1
--
molecule: CCCCCn1cc(C(=O)Nc2ccc3ccccc3c2)c2ccccc21
unit name: µM
qualifier sign: <
solubility thermodynamic at 24 h: 1
--
molecule: Cc1c(C(=O)c2cccc3ccccc23)c2cccc3c2n1[C@H](CN1CCOCC1)CO3 [WIN-552122]
unit name: µM
qualifier sign: =
solubility thermodynamic at 24 h: 8
--
molecule: COCCn1cc(C(=O)c2cccc(-c3ccccc3)c2)c2ccccc21
unit name: µM
qualifier sign: <
solubility thermodynamic at 24 h: 1
--
molecule: COCCn1cc(C(=O)c2ccc(-c3ccccc3)cc2)c2ccccc21
unit name: µM
qualifier sign: <
solubility thermodynamic at 24 h: 1

---

# Species on record: Homo sapiens
# procedure text: Selectivity ratio of Ki for human CB2 receptor to Ki for human CB1 receptor

compound: CCCCCn1cc(C(=O)c2ccc(-c3ccccc3)cc2)c2ccccc21
qualifier sign: =
Ratio Ki: 1
//
compound: CCCCCn1cc(C(=O)c2ccccc2-c2ccccc2)c2ccccc21
qualifier sign: =
Ratio Ki: 1
//
compound: COCCn1cc(C(=O)Nc2ccc3ccccc3c2)c2ccccc21
qualifier sign: <
Ratio Ki: 0.3
//
compound: CCCCCn1cc(C(=O)c2cccc(-c3ccccc3)c2)c2ccccc21
qualifier sign: =
Ratio Ki: 9
//
compound: COCCn1cc(C(=O)Nc2cccc3ccccc23)c2ccccc21
qualifier sign: <
Ratio Ki: 0.3
//
compound: COCCn1cc(C(=O)c2ccccc2-c2ccccc2)c2ccccc21
qualifier sign: =
Ratio Ki: 3
//
compound: COCCn1cc(C(=O)c2cccc3ccccc23)c2cccnc21
qualifier sign: =
Ratio Ki: 0.4
//
compound: COCCn1cc(C(=O)c2cccc3ccccc23)c2ccncc21
qualifier sign: <
Ratio Ki: 0.03
//
compound: CCCCCn1cc(C(=O)c2cccc3ccccc23)c2ccccc21
qualifier sign: =
Ratio Ki: 3
//
compound: COCCn1cc(C(=O)c2cccc(-c3ccccc3)c2)c2ccccc21
qualifier sign: >
Ratio Ki: 4
//
compound: CCCCCn1cc(C(=O)c2cccc3ccccc23)c2cccnc21
qualifier sign: =
Ratio Ki: 4
//
compound: CCCCCn1cc(C(=O)Nc2ccc3ccccc3c2)c2ccccc21
qualifier sign: =
Ratio Ki: 10
//
compound: CCCCCn1cc(C(=O)Nc2cccc3ccccc23)c2ccccc21
qualifier sign: =
Ratio Ki: 79
//
compound: CCCCCn1cc(C(=O)c2cccc3ccccc23)c2ccncc21
qualifier sign: =
Ratio Ki: 3
//
compound: CCCCCCC(C)(C)c1cc(O)c2c(c1)OC(C)(C)C1CCC(=O)CC21 (stereo not given) [NABILONE]
qualifier sign: =
Ratio Ki: 1.7

---

Documented Ki across a set of compounds
# experimental target: UniProt P21554

compound: COCCn1cc(C(=O)c2cccc3ccccc23)c2ccncc21
unit name: nM
qualifier sign: >
Ki: 1000
--
compound: CCCCCn1cc(C(=O)c2cccc(-c3ccccc3)c2)c2ccccc21
unit name: nM
qualifier sign: =
Ki: 7.94
--
compound: COCCn1cc(C(=O)c2ccccc2-c2ccccc2)c2ccccc21
unit name: nM
qualifier sign: =
Ki: 251
--
compound: COCCn1cc(C(=O)Nc2cccc3ccccc23)c2ccccc21
unit name: nM
qualifier sign: >
Ki: 1000
--
compound: CCCCCn1cc(C(=O)c2cccc3ccccc23)c2ccccc21
unit name: nM
qualifier sign: =
Ki: 2
--
compound: COCCn1cc(C(=O)c2cccc3ccccc23)c2cccnc21
unit name: nM
qualifier sign: =
Ki: 501
--
compound: CCCCCn1cc(C(=O)c2ccccc2-c2ccccc2)c2ccccc21
unit name: nM
qualifier sign: =
Ki: 6.31
--
compound: CCCCCCC(C)(C)c1cc(O)c2c(c1)OC(C)(C)C1CCC(=O)CC21 (stereo unspecified)
unit name: nM
qualifier sign: =
Ki: 3.98
--
compound: CCCCCn1cc(C(=O)c2cccc3ccccc23)c2cnccc21
unit name: nM
qualifier sign: =
Ki: 316
--
compound: COCCn1cc(C(=O)c2ccc(-c3ccccc3)cc2)c2ccccc21
unit name: nM
qualifier sign: >
Ki: 1000
--
compound: CCCCCn1cc(C(=O)c2ccc(-c3ccccc3)cc2)c2ccccc21
unit name: nM
qualifier sign: =
Ki: 31.6

Every entry's value here was drawn from ChEMBL document CHEMBL1828497.
